# STUDY SYSTEM: CDK-2 (Homo sapiens, UniProt P24941)
REPORTED ENDPOINT: IC50 (nM)
Report the value in nM with no unit label.

Exam item: May I ask what IC50 has been recorded for `CC[C@H](C)[C@@H]1NC(=O)[C@H](Cc2ccccc2)NC(=O)c2cccc(n2)C(=O)N[C@@H](Cc2ccccc2)C(=O)N[C@@H]([C@@H](C)CC)C(=O)N[C@H](C(=O)O)CCCCNC1=O` ?
Marked response: 60

---

# System: HepG-2 cell line
# PROCEDURE DETAILS: In vitro cytotoxicity on HepG-2 cell line
# Type: cell-based
# DETAILS: HepG-2 human hepatocellular carcinoma cells; concentration inhibiting cell viability by 50%; mean of three values; read-out: IC50 (Mean ± SEM) HepG-2
Listed here: items and their measured pIC50.
// field semantics: pIC50 = negative decimal log of concentration (mol/L)

Worked cases, pIC50 given:
COMPOUND	OBS VALUE
CC[C@H](C)[C@@H]1NC(=O)c2cccc(n2)C(=O)N[C@@H]([C@@H](C)CC)C(=O)N[C@@H]([C@@H](C)CC)C(=O)N[C@H](C(=O)OC)CCCCNC(=O)[C@H]([C@@H](C)CC)NC1=O	4.94
CC[C@H](C)[C@@H]1NC(=O)[C@H](Cc2ccccc2)NC(=O)c2cccc(n2)C(=O)N[C@@H](Cc2ccccc2)C(=O)N[C@@H]([C@@H](C)CC)C(=O)N[C@H](C(=O)O)CCCCNC1=O	5.12
CC[C@H](C)[C@@H]1NC(=O)c2cccc(n2)C(=O)N[C@@H]([C@@H](C)CC)C(=O)N[C@@H](Cc2ccccc2)C(=O)N[C@H](C(=O)NN)CCCCNC(=O)[C@H](Cc2ccccc2)NC1=O	4.94
CC[C@H](C)[C@H](NC(=O)c1cccc(C(=O)N[C@H](C(=O)N[C@@H](Cc2ccccc2)C(=O)O)[C@@H](C)CC)n1)C(=O)N[C@@H](Cc1ccccc1)C(=O)O [Compound 3b, N^α-Dipicolinoyl-bis[L-ILe-L-Phe]acid]	4.87
CC[C@H](C)[C@H](NC(=O)c1cccc(C(=O)N[C@H](C(=O)N[C@H](C(=O)OC)[C@@H](C)CC)[C@@H](C)CC)n1)C(=O)N[C@H](C(=O)OC)[C@@H](C)CC	4.69
CC[C@H](C)[C@H](NC(=O)[C@@H](NC(=O)c1cccc(C(=O)N[C@H](C(=O)N[C@H](C(=O)O)[C@@H](C)CC)[C@@H](C)CC)n1)[C@@H](C)CC)C(=O)O [Compound 3a, N^α-Dipicolinoyl-bis[L-ILe-L-ILe]acid]	4.58

Please find the next compound below.
Exam item: May I ask what pIC50 has been recorded for CC[C@H](C)[C@H](NC(=O)[C@H](Cc1ccccc1)NC(=O)c1cccc(C(=O)N[C@@H](Cc2ccccc2)C(=O)N[C@H](C(=O)O)[C@@H](C)CC)n1)C(=O)O [Compound 3c, N^α-Dipicolinoyl-bis[L-Phe-L-ILe]acid] ?
Marked response: 4.57

Values compiled from paper PMC6222410.
